Measured inhibition values are reported for all entries that follow.
# Experimental Target: Isocitrate dehydrogenase [NADP] cytoplasmic (Homo sapiens) (UniProt O75874)
# Sequence (O75874 whole entry R132H): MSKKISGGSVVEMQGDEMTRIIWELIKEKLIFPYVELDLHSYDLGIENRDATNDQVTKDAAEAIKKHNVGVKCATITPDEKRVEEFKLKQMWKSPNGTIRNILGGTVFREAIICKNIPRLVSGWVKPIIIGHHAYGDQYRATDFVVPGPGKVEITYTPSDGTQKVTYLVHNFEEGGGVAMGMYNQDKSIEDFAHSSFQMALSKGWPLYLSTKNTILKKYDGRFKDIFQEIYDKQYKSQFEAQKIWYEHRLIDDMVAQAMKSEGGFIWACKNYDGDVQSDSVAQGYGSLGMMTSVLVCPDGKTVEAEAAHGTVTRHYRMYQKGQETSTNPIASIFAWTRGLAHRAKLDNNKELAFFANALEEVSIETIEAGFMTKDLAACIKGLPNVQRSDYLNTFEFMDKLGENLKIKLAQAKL
# Test Summary: PubChem AID 624101;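 further: 0% = DMSO and 100% = no enzyme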
# Condition Parameters: IDH1 R132H reductase, diaphorase/resazurin fluorescence, 60 min; at 10 µM; active compounds read high
In all, about 70,000 compounds went through this assay and about 120 (0.17%) were called active. The entries come from a sample that favours actives as a whole.
// units = %; emit number, no label

Field: example entries. Status: answers known.
[
  {
    "Smiles Structure": "CO[C@@H](CN(C)C(=O)c1cnccn1)[C@H](C)CN([C@H](C)CO)S(=O)(=O)c1ccc(C)cc1",
    "inhibition [%]": 0.027
  },
  {
    "Smiles Structure": "O=C(C[C@H]1C=C[C@H](NC(=O)CC2CC2)[C@H](CO)O1)NCc1ccc(Cl)cc1",
    "inhibition [%]": -0.172
  },
  {
    "Smiles Structure": "Cc1cccc(S(=O)(=O)N[C@H]2CC[C@@H](CCNS(=O)(=O)c3ccccc3F)O[C@H]2CO)c1",
    "inhibition [%]": 0.059
  },
  {
    "Smiles Structure": "O=C(C[C@@H]1C[C@@H]2c3cc(NC(=O)Cc4ccncc4)ccc3O[C@@H]2[C@H](CO)O1)NCc1cccc(F)c1",
    "inhibition [%]": 0
  },
  {
    "Smiles Structure": "COc1ccccc1CNC(=O)C[C@H]1C[C@@H]2c3cc(NC(=O)c4ccc5c(c4)OCO5)ccc3O[C@@H]2[C@H](CO)O1",
    "inhibition [%]": -0.69
  }
]

Q: Given the entry `O=C(C[C@@H]1C=C[C@H](NC(=O)c2ccc3c(c2)OCO3)[C@H](CO)O1)NCc1ccc(Oc2ccccc2)cc1` , report its measured inhibition.
Ans: -0.347

Q: Another compound to check: `COCC(=O)Nc1ccc2c(c1)[C@H]1C[C@H](CC(=O)OC)O[C@@H](CO)[C@H]1O2`
Ans: -0.0115

Q: Another compound to check: `CCC(=O)N(C)C[C@@H]1Oc2cc(C#CC(C)(C)O)ccc2S(=O)(=O)N([C@@H](C)CO)C[C@@H]1C`
Ans: -1.91

Each recorded value in this set is attributed to PubChem BioAssay AID624101.
